Taken from paper PMC9247985.

SYSTEM_NAME: MroD (Micromonospora rosaria, UniProt A0A136PPB2)
Sequence (A0A136PPB2 entry or part of it): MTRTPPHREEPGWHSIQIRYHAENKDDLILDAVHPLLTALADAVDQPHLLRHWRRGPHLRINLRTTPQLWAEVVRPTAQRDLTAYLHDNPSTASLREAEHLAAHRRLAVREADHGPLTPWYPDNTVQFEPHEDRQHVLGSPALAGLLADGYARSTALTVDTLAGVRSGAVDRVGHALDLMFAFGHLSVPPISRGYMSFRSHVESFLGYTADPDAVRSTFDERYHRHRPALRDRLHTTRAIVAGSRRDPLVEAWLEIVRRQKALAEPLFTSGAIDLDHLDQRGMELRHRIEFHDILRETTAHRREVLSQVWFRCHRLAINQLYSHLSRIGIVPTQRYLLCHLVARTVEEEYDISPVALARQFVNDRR
ASSAY_CONDITIONS: read-out: IC50 MroD; SEM
Where no end group is shown, it is not given here.
Consider the following sequences; for each one, report its IC50.
API: value field is a number in nM; no unit string.

Look at this sequence and give its reported IC50. SDLDIVDLDLAVDEELAALSVGGLGNTEVGA [Δ12MroA1 leader]
16000

Name the reported IC50 value associated with the sequence SDLDIVDLDLAVDEELAALSVGGLGNTEVGASGWLGSWVG [Δ12MroA1-I9G]
910

// IC50 lookup, key: SDLDIVDLDLAVDEELAALSVGGLGNTEVGASGWLGSGVI [Δ12MroA1-W7G]
2400

# get_value(readout='IC50', item= SDLDIVDLDLAVDEELAALSVGGLGNTEVGASGWLGSWVI [Δ12MroA1] )
90

Data request, read-out IC50, for SDLDIVDLDLAVDEELAALSVGGLGNTEVGASGWLGSWGI [Δ12MroA1-V8G]
1700
